Task for the reader: assign each of the following compounds its reported Emax.
target: M3 muscarinic receptor (Homo sapiens, UniProt P20309); construct: expressed in transfected cells; host or cells: CHO (M3-CHO); test: Functional mobilization of intracellular calcium (FLIPR), M3-CHO cells; assay type: cell-based; details: 100% efficacy = maximum response obtained with the Carbachol control
Sequence (P20309 whole entry): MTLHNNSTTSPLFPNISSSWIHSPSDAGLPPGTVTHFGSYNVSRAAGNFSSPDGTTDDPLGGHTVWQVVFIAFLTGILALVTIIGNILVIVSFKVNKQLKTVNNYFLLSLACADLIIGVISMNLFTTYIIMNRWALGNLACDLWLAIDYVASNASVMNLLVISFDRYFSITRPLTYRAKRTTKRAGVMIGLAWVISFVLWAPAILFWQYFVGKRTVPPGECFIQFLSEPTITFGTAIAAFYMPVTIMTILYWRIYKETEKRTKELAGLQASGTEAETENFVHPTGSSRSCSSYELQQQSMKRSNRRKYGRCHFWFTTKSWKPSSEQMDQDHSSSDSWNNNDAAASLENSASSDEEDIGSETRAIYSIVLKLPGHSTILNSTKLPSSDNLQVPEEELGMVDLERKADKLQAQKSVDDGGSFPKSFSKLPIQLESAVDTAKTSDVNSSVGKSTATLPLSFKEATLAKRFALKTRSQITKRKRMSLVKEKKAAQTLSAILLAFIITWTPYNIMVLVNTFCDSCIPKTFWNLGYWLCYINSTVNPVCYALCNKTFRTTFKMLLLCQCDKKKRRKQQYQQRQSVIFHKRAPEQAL

Incoming: Entry under review: COCCNC(=O)c1ccc(-c2ccc(OC)c(C3CCN([C@H]4C[C@H]5CC[C@H]4C5)CC3)c2)cc1 [Compound 87] . Reported Emax?
Outgoing: < 25%

Incoming: Emax lookup needed for COc1ccccc1C1CCN(C2CCC(c3ccccc3)CC2)CC1 (stereo not shown) [Compound 234] , thanks.
Outgoing: < 25%

Incoming: Which Emax is listed for CCOC(=O)N1C2CCC1CC(N1CCC(c3cc(-c4ccc(S(=O)(=O)N5CCCC5)cc4)ccc3OC)CC1)C2 (stereo not shown) [Compound 215] ?
Outgoing: < 25%

Incoming: Any idea what its Emax is? The compound is COc1ccc(Cl)cc1C1(F)CCN(C2CCCCCC2)CC1 [Compound 161]
Outgoing: < 25%

Incoming: Please give the measured Emax for this compound: COc1ccc(Cl)cc1C1(F)CCN(C2C3CCCC2CCC3)CC1 (stereo not shown) [Compound 74]
Outgoing: < 25%

Incoming: Consider the compound COc1ccc(Cl)c(C2CCN(C3C[C@H]4CC[C@H]3C4)CC2)c1 (stereo partly shown) [Compound 174] and give its measured Emax.
Outgoing: < 25%

Incoming: May I ask what Emax has been recorded for COc1cc(F)ccc1C1CCN([C@@H]2C[C@H]3CC[C@H]2C3)CC1 [Compound 35] ?
Outgoing: < 25%

Incoming: Recorded Emax of COc1ccc(Cl)cc1C1(F)CCN(CC2CCCCC2)CC1 [Compound 257] , please.
Outgoing: < 25%

Incoming: GET /values?readout=Emax&item= CCCC1CCC(N2CCC(F)(c3cc(F)ccc3OC)CC2)CC1 (stereo not shown) [Compound 327]
Outgoing: < 25%

Incoming: Quick check: Emax of COc1ccc(Cl)cc1C1CCN(C2CC3CCC2C3)CC1 (stereo not shown) [Compound 209] ?
Outgoing: < 25%

Incoming: Looking for the measured Emax of CCOC(=O)N1C2CCC1CC(N1CCC(OC)(c3cc(F)ccc3OC)CC1)C2 (stereo not shown) [Compound 118] , can you help?
Outgoing: < 25%

Incoming: Suppose we examine the compound COc1ccc(-c2ccc(C#N)cc2)cc1C1CCN(C2CCCCC2)CC1 [Compound 342] ; what Emax value has been reported?
Outgoing: < 25%

Incoming: Entry under review: COc1ccc(F)cc1C1(OC)CCN(C2CC3CCC(C3)C2)CC1 (stereo not shown) [Compound 247] . Reported Emax?
Outgoing: < 25%

Incoming: Any idea what its Emax is? The compound is CNC(=O)c1ccc(-c2ccc(OC)c(C3CCN(C4CCOCC4)CC3)c2)cc1Cl [Compound 11]
Outgoing: < 25%

Incoming: Please look up its Emax: COc1ccc(F)cc1C1(F)CCN(CC2CCOCC2)CC1 [Compound 239]
Outgoing: < 25%

Incoming: Which value of Emax has been reported for CC(C)Oc1ccccc1C1CCN([C@H]2C[C@H]3CC[C@H]2C3)CC1 [Compound 26] in the records?
Outgoing: < 25%

Incoming: For COc1ccccc1C1CCN(C2CCCCCC2)CC1 [Compound 224] , what is its reported Emax?
Outgoing: < 25%

Incoming: Returns the measured Emax for the input compound. Input: COc1ccc(-c2ccc(S(C)(=O)=O)cc2)cc1C1CCN([C@H]2C[C@H]3CC[C@H]2C3)CC1 [Compound 102]
Outgoing: < 25%

Incoming: What Emax value was documented for this compound, COc1ccc(C(F)(F)F)cc1C1CCN(C2C[C@H]3CC[C@H]2C3)CC1 (stereo partly shown) [Compound 296] ?
Outgoing: < 25%

Incoming: Form field: reported Emax of CCOC(=O)N1C2CCC1CC(N1CCC(c3cc(F)cc(F)c3OC)CC1)C2 (stereo not shown) [Compound 198]
Outgoing: < 25%

Incoming: Would you kindly share the measured Emax for COc1ccc(-c2ccc([S+](C)[O-])cc2)cc1C1CCN(C2CCOCC2)CC1 (stereo not shown) [Compound 22] ?
Outgoing: < 25%

Incoming: Field request: Emax | item: CNC(=O)c1ccc(-c2ccc(OC)c(C3CCN(C4CC5CCC(C5)C4)CC3)c2)cc1 (stereo not shown) [Compound 196]
Outgoing: < 25%

Incoming: Returns the measured Emax for the input compound. Input: CCOC(=O)N1CCC(CN2CCC(c3cc(C(F)(F)F)ccc3C)CC2)CC1 [Compound 94]
Outgoing: < 25%

Incoming: Emax lookup needed for CCOC(=O)N1CCC(CN2CCC(F)(c3cc(F)ccc3OC)CC2)CC1 [Compound 253] , thanks.
Outgoing: < 25%

Incoming: Reported Emax, compound COc1cccc(-c2ccccc2C2CCN([C@H]3C[C@H]4CC[C@H]3C4)CC2)c1 [Compound 116] : ____
Outgoing: < 25%

Incoming: Suppose we examine the compound COc1ccc(C(C)=O)cc1C1CCN([C@H]2C[C@H]3CC[C@H]2C3)CC1 [Compound 321] ; what Emax value has been reported?
Outgoing: < 25%

Incoming: Requested read-out: Emax. Entry: Fc1ccc(F)c(C2CCN(C3C[C@H]4CC[C@H]3C4)CC2)c1 (stereo partly shown) [Compound 205]
Outgoing: < 25%

Incoming: What value of Emax has been reported for the following compound? CCC(=O)c1ccc(OC)c(C2CCN([C@H]3C[C@H]4CC[C@H]3C4)CC2)c1 [Compound 282]
Outgoing: < 25%

Incoming: // query Emax value for entry Cc1ccccc1C1CCN(C2CCOCC2)CC1 [Compound 281]
Outgoing: < 25%

Incoming: What value of Emax has been reported for the following compound? COc1c(F)cc(F)cc1C1CCN(C2CC3CCC(C3)C2)CC1 (stereo not shown) [Compound 311]
Outgoing: < 25%

Incoming: Which measured Emax value corresponds to COc1ccccc1C1CCN(C2CC3CCC2C3)CC1 (stereo not shown) [Compound 79] ?
Outgoing: < 25%

Incoming: Bench note: what Emax did COc1ccc(-c2ccc(OC(F)(F)F)cc2)cc1C1CCN([C@H]2C[C@H]3CC[C@H]2C3)CC1 [Compound 126] show?
Outgoing: < 25%

Incoming: Quick check: Emax of COc1ccc(Cl)cc1C1CCN(C2(C)CCCCC2)CC1 [Compound 300] ?
Outgoing: < 25%

Incoming: Request the reported Emax associated with COc1ccccc1C1CCN(CC2CCCC2)CC1 [Compound 232]
Outgoing: < 25%

* * *

Target: M1 muscarinic receptor (Homo sapiens, UniProt P11229)
Construct: expressed in transfected cells; host or cells: CHO (M1-CHO)
Sequence (P11229 1-460): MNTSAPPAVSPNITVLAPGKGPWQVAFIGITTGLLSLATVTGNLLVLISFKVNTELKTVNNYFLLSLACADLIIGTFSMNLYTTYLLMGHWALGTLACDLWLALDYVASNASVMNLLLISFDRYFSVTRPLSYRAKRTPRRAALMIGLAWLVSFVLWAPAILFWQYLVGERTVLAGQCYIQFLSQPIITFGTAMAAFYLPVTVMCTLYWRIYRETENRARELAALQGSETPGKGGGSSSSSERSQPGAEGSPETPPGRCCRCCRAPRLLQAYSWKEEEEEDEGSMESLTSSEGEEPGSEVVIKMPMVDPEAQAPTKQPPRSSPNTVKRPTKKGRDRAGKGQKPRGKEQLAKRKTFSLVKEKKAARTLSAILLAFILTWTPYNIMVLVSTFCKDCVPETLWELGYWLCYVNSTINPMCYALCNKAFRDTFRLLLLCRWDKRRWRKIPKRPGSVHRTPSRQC
Assay: Functional mobilization of intracellular calcium (FLIPR), M1-CHO cells
Format: cell-based
Conditions: 100% efficacy is the maximum response obtained with the Carbachol control
Please respond with reported Emax for every item in the list.

Incoming: Suppose we examine the compound `CCOC(=O)N1CCC(N2CCC(c3cc(Cl)ccc3OC)CC2)CC1` ; what Emax value has been reported?
Outgoing: 25 to 100%

Incoming: Could you tell me which Emax is on file for `COc1ccc(-c2ccc(C(=O)Nc3nccs3)cc2)cc1C1CCN(C2CCOCC2)CC1` ?
Outgoing: < 25%

Incoming: Report Emax for `COc1ccccc1C1(C#N)CCN(CC2CCOCC2)CC1` please.
Outgoing: < 25%

Incoming: Entry under review: `Clc1cccc(-c2ccccc2C2CCN([C@H]3C[C@H]4CC[C@H]3C4)CC2)c1` . Reported Emax?
Outgoing: < 25%

Incoming: I have this compound here, `COc1ccccc1C1(C#N)CCN(C2CCOCC2)CC1` , and I need its recorded Emax.
Outgoing: < 25%

Incoming: Returns the measured Emax for the input compound. Input: `COc1ccc(-c2ccc(C)cc2)cc1C1CCN([C@H]2C[C@H]3CC[C@H]2C3)CC1`
Outgoing: < 25%

Incoming: Recorded Emax of `Cc1ccc(-c2ccccc2C2CCN([C@H]3C[C@H]4CC[C@H]3C4)CC2)c(C)c1` , please.
Outgoing: < 25%

Incoming: Any idea what its Emax is? The compound is COc1ccccc1C1CCN(C2CC3CC[C@H]2C3)CC1 (stereo in doubt)
Outgoing: 25 to 100%

Incoming: Sample CCOC(=O)N1C2CCC1CC(N1CCC(OC)(c3cc(Cl)ccc3OC)CC1)C2 (centres unmarked) — what was its Emax?
Outgoing: 25 to 100%

Incoming: Returns the measured Emax for the input compound. Input: `COc1ccccc1C(=O)COc1ccccc1C1CCN([C@H]2C[C@H]3CC[C@H]2C3)CC1`
Outgoing: 25 to 100%

Incoming: So what's the measured Emax for this one? `COc1ccc(Cl)cc1C1(O)CCN(C[C@H]2C[C@H]3C=C[C@H]2C3)CC1`
Outgoing: < 25%

Incoming: For the compound shown here, `Fc1ccccc1C1CCN(C2CCOCC2)CC1` , give the reported Emax.
Outgoing: 25 to 100%

Incoming: Query: Emax; subject: `CCOC(=O)N1CCC(CN2CCC(c3ccccc3C(F)(F)F)CC2)CC1`
Outgoing: 25 to 100%

Incoming: I am curious: what Emax value has been reported for COc1ccc(-c2ccc(C(C)(C)C#N)cc2)cc1C1CCN(C2C[C@H]3CC[C@H]2C3)CC1 (some centres unmarked) ?
Outgoing: 25 to 100%

Incoming: For `Cc1ccc(F)cc1C1CCN([C@@H]2C[C@H]3CC[C@H]2C3)CC1` , what is its reported Emax?
Outgoing: 25 to 100%

Incoming: Using the record for `COc1cccc(-c2ccccc2C2CCN([C@H]3C[C@H]4CC[C@H]3C4)CC2)c1OC` , report its Emax.
Outgoing: < 25%

Incoming: What does the record list as Emax for COc1ccccc1C1CCN(C2C3CC4CC(C3)CC2C4)CC1 (centres unmarked) ?
Outgoing: 25 to 100%

Incoming: So what's the measured Emax for this one? `N#Cc1ccc(C2CCN(C3CCOCC3)CC2)cc1`
Outgoing: < 25%

Incoming: Dear colleague, I am looking for the recorded Emax of the following compound: CCOC(=O)N1C2CCC1CC(N1CCC(c3cc(-c4ccc5c(c4)OCO5)ccc3OC)CC1)C2 (centres unmarked)
Outgoing: 25 to 100%

Incoming: Could you tell me which Emax is on file for CCOC(=O)N1C2CCC1CC(N1CCC(c3cc(Cl)ccc3OC)CC1)C2 (centres unmarked) ?
Outgoing: 25 to 100%

Incoming: Give its Emax value. Item: `COc1ccc(-c2ccc(C(N)=O)cc2)cc1C1CCN([C@H]2C[C@H]3CC[C@H]2C3)CC1`
Outgoing: < 25%

Incoming: What measured Emax goes with `COc1ccc(Cl)cc1C1(F)CCN(CC2CCOCC2)CC1` ?
Outgoing: < 25%

Incoming: What value of Emax has been recorded for this entry: `COc1ccc(-c2ccc(OC)c(C3CCN([C@@H]4C[C@H]5CC[C@H]4C5)CC3)c2)cc1`
Outgoing: < 25%

Incoming: Quick one: Emax for `COc1ccc(-c2ccc(C#N)cc2)cc1C1CCN([C@@H]2C[C@H]3CC[C@H]2C3)CC1` ?
Outgoing: 25 to 100%

Incoming: Given the entry CCON=C1CCC(N2CCC(c3cc(Cl)ccc3OC)CC2)CC1 (centres unmarked) , report its measured Emax.
Outgoing: 25 to 100%

Incoming: Quick one: Emax for `COc1ccc(-c2ccc(C(=O)NC3CC3)cc2)cc1C1CCN([C@H]2C[C@H]3CC[C@H]2C3)CC1` ?
Outgoing: < 25%

Incoming: Requested field: Emax. Item: `COc1ccc(Cl)cc1C1(F)CCN(C2CCCCC2)CC1`
Outgoing: 25 to 100%

Incoming: Fill in: Emax of `CCOC(=O)N1CCC(CN2CCC(c3cc(-c4ccc(S(=O)(=O)N5CCCC5)cc4)ccc3OC)CC2)CC1` is ___
Outgoing: 25 to 100%

Incoming: Form field: reported Emax of Cc1ccc(F)cc1C1CCN(C2C[C@H]3CC[C@H](C2)C3)CC1 (some centres unmarked)
Outgoing: 25 to 100%

Incoming: // query Emax value for entry `COc1ccccc1-c1ccccc1C1CCN([C@H]2C[C@H]3CC[C@H]2C3)CC1`
Outgoing: 25 to 100%

Incoming: Emax lookup needed for `COc1ccc(-c2ccc3c(c2)OCO3)cc1C1CCN(C2CCCCC2)CC1` , thanks.
Outgoing: < 25%

Incoming: For the compound COc1ccccc1C1CCN(C2CCCC(C)C2)CC1 (centres unmarked) , what Emax is on record?
Outgoing: 25 to 100%
